- target_system: Gal(b1-3)GlcNAc(b1-3)Gal(b1-3)GlcNAc
- measurement_description: glycan array binding signal (z-score within array); higher = stronger binding
- condition_label: glycan notation: IUPAC condensed, linker removed
The sample as a whole holds a higher share of the strongest signals than the screen did.
reported_property: glycan array binding signal (z-score)

Clec18A (Homo sapiens) (protein) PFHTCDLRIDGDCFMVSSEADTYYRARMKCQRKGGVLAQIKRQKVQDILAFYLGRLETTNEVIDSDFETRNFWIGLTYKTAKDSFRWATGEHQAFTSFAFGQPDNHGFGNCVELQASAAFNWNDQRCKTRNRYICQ	4.51
Mindin (Homo sapiens), Q9BUD6 (protein) MENPSPAAALGKALCALLLATLGAAGQPLGGESICSARALAKYSITFTGKWSQTAFPKQYPLFRPPAQWSSLLGAAHSSDYSMWRKNQYVSNGLRDFAERGEAWALMKEIEAAGEALQSVHEVFSAPAVPSGTGQTSAELEVQRRHSLVSFVVRIVPSPDWFVGVDSLDLCDGDRWREQAALDLYPYDAGTDSGFTFSSPNFATIPQDTVTEITSSSPSHPANSFYYPRLKALPPIARVTLVRLRQSPRAFIPPAPVLPSRDNEIVDSASVPETPLDCEVSLWSSWGLCGGHCGRLGTKSRTRYVRVQPANNGSPCPELEEEAECVPDNCV	-0.279
NPA (Narcissus pseudonarcissus), C0HM45 (protein) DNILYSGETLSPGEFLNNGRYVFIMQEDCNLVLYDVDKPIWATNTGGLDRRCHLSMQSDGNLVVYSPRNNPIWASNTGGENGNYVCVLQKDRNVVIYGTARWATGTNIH	-0.148
BDCA-2 (Homo sapiens), Q8WTT0 (protein) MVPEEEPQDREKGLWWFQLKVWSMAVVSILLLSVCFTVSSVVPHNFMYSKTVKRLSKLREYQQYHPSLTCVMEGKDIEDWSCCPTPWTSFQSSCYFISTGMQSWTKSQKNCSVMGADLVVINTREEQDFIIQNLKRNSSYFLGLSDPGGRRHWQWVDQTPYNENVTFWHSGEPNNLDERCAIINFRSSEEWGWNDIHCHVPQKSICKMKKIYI	-0.16
